Test system: rodent lifetime carcinogenesis bioassay, tumor incidence TD50
Assay: carcinogenic potency in animals, long-term in vivo studies, CPDB compilation (AID 1745844)
Conditions: rat; strain Fischer 344; males; by gavage; site: all sites; lesion: mononuclear-cell leukemia; dosed 71 weeks; study length 71 weeks
value.kind: TD50

Input `C=C1C/C(=C/C)C(=O)O[C@@H]2CCN3CC=C(COC(=O)[C@@]1(O)CO)[C@H]23` . Output TD50: 0.232 mg/kg/day

---

Test system: rodent lifetime carcinogenesis bioassay, tumor incidence TD50
Experiment: carcinogenic potency in animals, long-term in vivo studies, CPDB compilation (AID 1745844)
Settings: rat; strain Osborne-Mendel; both sexes; in feed; site: all sites; lesion: fibrosarcoma; dosed 104 weeks; study length 104 weeks
Calls of active or inactive are those of the source. No rule for the calls is given here.
value.kind: TD50

Input `Cc1cc(C)c(S(=O)(=O)O)cc1N=Nc1cc(S(=O)(=O)O)c2ccccc2c1O` . Output TD50: 20300 mg/kg/day (inactive)

---

System: rodent lifetime carcinogenesis bioassay, tumor incidence TD50
Assay: carcinogenic potency in animals, long-term in vivo studies, CPDB compilation (AID 1745844)
Conditions: rat; strain MRC-Wistar; males; in drinking water; site: epidermis; lesion: several types; types named in the paper; dosed 74 weeks; study length 130 weeks
value.kind: TD50

Lab entry: rodent lifetime carcinogenesis bioassay, tumor incidence TD50 assay, molecule `NC(=O)N(CC(=O)O)N=O` , TD50 = 34.8 mg/kg/day

---

Test system: rodent lifetime carcinogenesis bioassay, tumor incidence TD50
Assay: carcinogenic potency in animals, long-term in vivo studies, CPDB compilation (AID 1745844)
Conditions: mouse; strain B6C3F1; females; i.p.; site: lung; lesion: alveolar/bronchiolar adenoma + alveolar/bronchiolar carcinoma; dosed 52 weeks; study length 86 weeks
value.kind: TD50

Input `CS(=O)(=O)OCCCNCCCOS(C)(=O)=O` . Output TD50: 6.88 mg/kg/day

---

Tested on: rodent lifetime carcinogenesis bioassay, tumor incidence TD50
Assay: carcinogenic potency in animals, long-term in vivo studies, CPDB compilation (AID 1745844)
Details: mouse; strain ICR/Jcl; females; in feed; site: any site (literature study); lesion: several types; types named in the paper; dosed 102 weeks; study length 106 weeks
Activity calls are given as the source filed them. No rule for the calls is given here.
TD50 overview

1) CCCCOC(=O)c1ccc(O)cc1    2720 mg/kg/day (inactive)

Input `CC(C)COC(=O)c1ccc(O)cc1` . Output TD50: 12300 mg/kg/day (inactive)

---

Test system: rodent lifetime carcinogenesis bioassay, tumor incidence TD50
Assay: carcinogenic potency in animals, long-term in vivo studies, CPDB compilation (AID 1745844)
Conditions: rat; strain Charles River CD (Sprague-Dawley); females; in feed; site: liver; lesion: biliary cystadenoma; dosed 142 weeks; study length 142 weeks
value.kind: TD50 (mg/kg/day)
Use mg/kg/day as the unit, but write only the number.

Input `O=C1NS(=O)(=O)c2ccccc21` . Output TD50: 155000

---

Tested on: rodent lifetime carcinogenesis bioassay, tumor incidence TD50
Assay: carcinogenic potency in animals, long-term in vivo studies, CPDB compilation (AID 1745844)
Settings: mouse; strain XVII/G; females; in feed; site: any site (literature study); lesion: several types; types named in the paper; dosed 104 weeks; study length 104 weeks
The source made the active and inactive calls. No rule for the calls is given here.
value.kind: TD50

Input `Oc1c(Cl)cc(Cl)c(Cl)c1Cc1c(O)c(Cl)cc(Cl)c1Cl` . Output TD50: 39.4 mg/kg/day (inactive)

---

Tested on: rodent lifetime carcinogenesis bioassay, tumor incidence TD50
Assay: carcinogenic potency in animals, long-term in vivo studies, CPDB compilation (AID 1745844)
Settings: mouse; strain CF-1; males; in feed; site: liver; lesion: hepatoma; dosed 123 weeks; study length 123 weeks
value.kind: TD50

Lab entry: rodent lifetime carcinogenesis bioassay, tumor incidence TD50 assay, molecule `Clc1ccc(C(c2ccc(Cl)cc2)C(Cl)Cl)cc1` , TD50 = 86.8 mg/kg/day

---

Tested on: rodent lifetime carcinogenesis bioassay, tumor incidence TD50
Assay: carcinogenic potency in animals, long-term in vivo studies, CPDB compilation (AID 1745844)
Conditions: mouse; strain B6C3F1; females; in feed; site: pituitary gland; lesion: adenoma, NOS + chromophobe adenoma; dosed 78 weeks; study length 95 weeks
value.kind: TD50
Enter the number, and then the unit.

Input `O=[N+]([O-])c1ccc2nc[nH]c2c1` . Output TD50: 335 mg/kg/day

---

Tested on: rodent lifetime carcinogenesis bioassay, tumor incidence TD50
Assay: carcinogenic potency in animals, long-term in vivo studies, CPDB compilation (AID 1745844)
Settings: mouse; strain B6C3F1; females; inhaled; site: kidney; lesion: tubule adenoma; dosed 83 weeks; study length 104 weeks
value.kind: TD50 (mg/kg/day)
Use mg/kg/day as the unit, but write only the number.

Input `C=CC=C` . Output TD50: 1060

---

Test system: rodent lifetime carcinogenesis bioassay, tumor incidence TD50
Test: carcinogenic potency in animals, long-term in vivo studies, CPDB compilation (AID 1745844)
Conditions: mouse; strain B6C3F1; males; inhaled; site: forestomach; lesion: squamous-cell papilloma; dosed 104 weeks; study length 104 weeks
value.kind: TD50

Input `C=CC(=C)Cl` . Output TD50: 335 mg/kg/day

---

System: rodent lifetime carcinogenesis bioassay, tumor incidence TD50
Assay: carcinogenic potency in animals, long-term in vivo studies, CPDB compilation (AID 1745844)
Settings: rat; strain Sprague-Dawley; females; by gavage; site: liver; lesion: angiosarcoma; dosed 52 weeks; study length 127 weeks
value.kind: TD50

Input `C=CCl` . Output TD50: 38.6 mg/kg/day

---

Test system: rodent lifetime carcinogenesis bioassay, tumor incidence TD50
Test: carcinogenic potency in animals, long-term in vivo studies, CPDB compilation (AID 1745844)
Conditions: mouse; strain B6C3F1; females; inhaled; site: Harderian gland; lesion: adenoma; dosed 80 weeks; study length 105 weeks
value.kind: TD50

Input `C=CC(=C)C` . Output TD50: 319 mg/kg/day

---

Tested on: rodent lifetime carcinogenesis bioassay, tumor incidence TD50
Test: carcinogenic potency in animals, long-term in vivo studies, CPDB compilation (AID 1745844)
Details: hamster; strain Syrian Golden; males; in drinking water; site: blood vessels; lesion: several types; types named in the paper; dosed 91 weeks; study length 91 weeks
value.kind: TD50 (mg/kg/day)
Use mg/kg/day as the unit, but write only the number.

Input `CN(C)N` . Output TD50: 183

---

Tested on: rodent lifetime carcinogenesis bioassay, tumor incidence TD50
Experiment: carcinogenic potency in animals, long-term in vivo studies, CPDB compilation (AID 1745844)
Conditions: mouse; strain Swiss; males; i.p.; site: any site (literature study); lesion: malignant tumor; dosed 26 weeks; study length 72 weeks
value.kind: TD50

Input `CN(N=O)C(=O)N[C@@H](C=O)[C@@H](O)[C@H](O)[C@H](O)CO` . Output TD50: 3.53 mg/kg/day

---

System: rodent lifetime carcinogenesis bioassay, tumor incidence TD50
Test: carcinogenic potency in animals, long-term in vivo studies, CPDB compilation (AID 1745844)
Conditions: rat; strain Fischer 344; males; in drinking water; site: tunica vaginalis; lesion: mesothelioma, benign; dosed 107 weeks; study length 107 weeks
value.kind: TD50

Lab entry: rodent lifetime carcinogenesis bioassay, tumor incidence TD50 assay, compound `C=CC(N)=O` , TD50 = 9.45 mg/kg/day

---

System: rodent lifetime carcinogenesis bioassay, tumor incidence TD50
Experiment: carcinogenic potency in animals, long-term in vivo studies, CPDB compilation (AID 1745844)
Details: mouse; strain B6C3F1; males; in feed; site: lung; lesion: alveolar/bronchiolar carcinoma; dosed 106 weeks; study length 106 weeks
value.kind: TD50 (mg/kg/day)
Use mg/kg/day as the unit, but write only the number.

Input `CCN(CC)C(=S)S[Te](SC(=S)N(CC)CC)(SC(=S)N(CC)CC)SC(=S)N(CC)CC` . Output TD50: 260

---

Test system: rodent lifetime carcinogenesis bioassay, tumor incidence TD50
Assay: carcinogenic potency in animals, long-term in vivo studies, CPDB compilation (AID 1745844)
Settings: rat; strain Fischer 344; males; in drinking water; site: tunica vaginalis; lesion: mesothelioma, malignant; dosed 104 weeks; study length 104 weeks
value.kind: TD50

Input `C=CC(N)=O` . Output TD50: 1.75 mg/kg/day

---

System: rodent lifetime carcinogenesis bioassay, tumor incidence TD50
Test: carcinogenic potency in animals, long-term in vivo studies, CPDB compilation (AID 1745844)
Conditions: mouse; strain B6C3F1; females; by gavage; site: liver; lesion: hepatocellular adenoma + hepatocellular carcinoma + neoplastic nodule; dosed 102 weeks; study length 103 weeks
value.kind: TD50 (mg/kg/day)
Use mg/kg/day as the unit, but write only the number.

Input `CC(C)=CCl` . Output TD50: 150

---

Test system: rodent lifetime carcinogenesis bioassay, tumor incidence TD50
Experiment: carcinogenic potency in animals, long-term in vivo studies, CPDB compilation (AID 1745844)
Conditions: mouse; strain NMRI; females; inhaled; site: Harderian gland; lesion: cystadenoma; dosed 78 weeks; study length 129 weeks
value.kind: TD50

Input `ClC#CCl` . Output TD50: 0.499 mg/kg/day
